TESTED TARGET: L-selectin (Homo sapiens)
Sequence (P14151 whole entry): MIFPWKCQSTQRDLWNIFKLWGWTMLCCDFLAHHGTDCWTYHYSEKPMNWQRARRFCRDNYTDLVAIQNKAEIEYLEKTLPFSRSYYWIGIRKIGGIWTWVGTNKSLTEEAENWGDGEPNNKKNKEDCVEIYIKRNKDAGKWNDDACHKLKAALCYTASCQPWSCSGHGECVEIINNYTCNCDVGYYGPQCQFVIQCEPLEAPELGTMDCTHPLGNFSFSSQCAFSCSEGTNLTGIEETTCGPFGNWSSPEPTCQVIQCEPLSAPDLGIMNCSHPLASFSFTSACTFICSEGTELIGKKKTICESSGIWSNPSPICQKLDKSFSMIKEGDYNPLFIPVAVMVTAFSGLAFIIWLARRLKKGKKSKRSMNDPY
PROTOCOL SUMMARY: Inhibitory activity against human chimeric L-selectin-Ig
MEASURED METRIC: IC50

## Task Form field: reported IC50 of CC(=O)N[C@H]1CO[C@H](CO)[C@@H](O[C@@H]2O[C@H](CO)[C@H](O)[C@H](OS(=O)(=O)O)[C@H]2O)[C@@H]1O[C@@H]1O[C@@H](C)[C@@H](O)[C@@H](O)[C@@H]1O
## Result > 1000 µM

## Task Form field: reported IC50 of C[C@@H]1O[C@@H](O[C@@H]2CCO[C@H](CO)[C@H]2O[C@@H]2O[C@H](CO)[C@H](O)[C@H](OP(=O)(O)O)[C@H]2O)[C@@H](O)[C@H](O)[C@@H]1O
## Result 420 µM

## Task Form field: reported IC50 of CC(=O)N[C@H]1[C@H]([C@H](O)[C@H](O)CO)O[C@@](O[C@@H]2[C@H](O)[C@@H](O)[C@H](O[C@H]3[C@H](O[C@@H]4O[C@@H](C)[C@@H](O)[C@@H](O)[C@@H]4O)[C@@H](O)CO[C@@H]3CO)O[C@@H]2O)(C(=O)O)C[C@@H]1O
## Result 220 µM

## Task Form field: reported IC50 of C[C@@H]1O[C@@H](O[C@@H]2CCO[C@H](CO)[C@H]2O[C@@H]2O[C@H](CO)[C@H](O)[C@H](OS(=O)(=O)O)[C@H]2O)[C@@H](O)[C@H](O)[C@@H]1O
## Result > 1000 µM

## Task Form field: reported IC50 of CC(=O)N[C@H]1[C@H]([C@H](O)[C@H](O)CO)O[C@@](O[C@H]2[C@@H](O)[C@@H](CO)O[C@@H](O[C@@H]([C@H](O[C@@H]3O[C@@H](C)[C@@H](O)[C@@H](O)[C@@H]3O)[C@H](C=O)NC(C)=O)[C@H](O)CO)[C@@H]2O)(C(=O)O)C[C@@H]1O [SIALYL LEWIS X]
## Result > 1000 µM

## Task Form field: reported IC50 of C[C@@H]1O[C@@H](O[C@H]2[C@H](O[C@@H]3O[C@H](CO)[C@H](O)[C@H](OS(=O)(=O)O)[C@H]3O)[C@@H](CO)OC[C@@H]2O)[C@@H](O)[C@H](O)[C@@H]1O
## Result > 1000 µM

* * *

TESTED TARGET: P-selectin (Homo sapiens, UniProt P16109)
Sequence (P16109 whole entry): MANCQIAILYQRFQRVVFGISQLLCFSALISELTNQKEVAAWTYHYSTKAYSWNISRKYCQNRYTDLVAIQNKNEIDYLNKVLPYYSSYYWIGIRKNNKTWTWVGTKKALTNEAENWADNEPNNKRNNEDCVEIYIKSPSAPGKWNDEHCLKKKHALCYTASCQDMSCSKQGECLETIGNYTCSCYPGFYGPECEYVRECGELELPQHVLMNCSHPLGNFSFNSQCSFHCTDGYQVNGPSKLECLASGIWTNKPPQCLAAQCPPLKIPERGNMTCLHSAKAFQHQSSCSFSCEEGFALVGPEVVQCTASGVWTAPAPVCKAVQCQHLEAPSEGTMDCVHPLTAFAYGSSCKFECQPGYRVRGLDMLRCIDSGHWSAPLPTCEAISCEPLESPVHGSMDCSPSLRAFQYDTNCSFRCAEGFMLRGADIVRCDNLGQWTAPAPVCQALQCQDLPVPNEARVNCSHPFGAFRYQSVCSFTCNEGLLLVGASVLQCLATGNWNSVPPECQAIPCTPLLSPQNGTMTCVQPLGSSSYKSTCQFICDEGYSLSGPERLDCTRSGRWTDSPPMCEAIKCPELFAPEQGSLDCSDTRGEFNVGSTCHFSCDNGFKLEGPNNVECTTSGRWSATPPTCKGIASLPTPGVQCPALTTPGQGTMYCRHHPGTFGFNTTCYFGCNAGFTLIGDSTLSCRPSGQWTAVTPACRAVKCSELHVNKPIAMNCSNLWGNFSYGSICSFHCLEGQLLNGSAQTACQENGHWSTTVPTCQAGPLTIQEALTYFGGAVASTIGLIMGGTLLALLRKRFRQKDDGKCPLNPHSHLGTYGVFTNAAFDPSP
PROTOCOL SUMMARY: Inhibitory activity against human chimeric Selectin P-Ig
MEASURED METRIC: IC50

## Task Record lookup: for P-selectin (Homo sapiens, UniProt P16109), what IC50 belongs to CC(=O)N[C@H]1CO[C@H](CO)[C@@H](O[C@@H]2O[C@H](CO)[C@H](O)[C@H](OS(=O)(=O)O)[C@H]2O)[C@@H]1O[C@@H]1O[C@@H](C)[C@@H](O)[C@@H](O)[C@@H]1O ?
## Result > 1 mM

## Task Record lookup: for P-selectin (Homo sapiens, UniProt P16109), what IC50 belongs to C[C@@H]1O[C@@H](O[C@@H]2CCO[C@H](CO)[C@H]2O[C@@H]2O[C@H](CO)[C@H](O)[C@H](OP(=O)(O)O)[C@H]2O)[C@@H](O)[C@H](O)[C@@H]1O ?
## Result > 1 mM

## Task Record lookup: for P-selectin (Homo sapiens, UniProt P16109), what IC50 belongs to CC(=O)N[C@H]1[C@H]([C@H](O)[C@H](O)CO)O[C@@](O[C@@H]2[C@H](O)[C@@H](O)[C@H](O[C@H]3[C@H](O[C@@H]4O[C@@H](C)[C@@H](O)[C@@H](O)[C@@H]4O)[C@@H](O)CO[C@@H]3CO)O[C@@H]2O)(C(=O)O)C[C@@H]1O ?
## Result > 1 mM

## Task Record lookup: for P-selectin (Homo sapiens, UniProt P16109), what IC50 belongs to C[C@@H]1O[C@@H](O[C@@H]2CCO[C@H](CO)[C@H]2O[C@@H]2O[C@H](CO)[C@H](O)[C@H](OS(=O)(=O)O)[C@H]2O)[C@@H](O)[C@H](O)[C@@H]1O ?
## Result 0.56 mM

* * *

TESTED TARGET: E-selectin (Homo sapiens, UniProt P16581)
Sequence (P16581 whole entry): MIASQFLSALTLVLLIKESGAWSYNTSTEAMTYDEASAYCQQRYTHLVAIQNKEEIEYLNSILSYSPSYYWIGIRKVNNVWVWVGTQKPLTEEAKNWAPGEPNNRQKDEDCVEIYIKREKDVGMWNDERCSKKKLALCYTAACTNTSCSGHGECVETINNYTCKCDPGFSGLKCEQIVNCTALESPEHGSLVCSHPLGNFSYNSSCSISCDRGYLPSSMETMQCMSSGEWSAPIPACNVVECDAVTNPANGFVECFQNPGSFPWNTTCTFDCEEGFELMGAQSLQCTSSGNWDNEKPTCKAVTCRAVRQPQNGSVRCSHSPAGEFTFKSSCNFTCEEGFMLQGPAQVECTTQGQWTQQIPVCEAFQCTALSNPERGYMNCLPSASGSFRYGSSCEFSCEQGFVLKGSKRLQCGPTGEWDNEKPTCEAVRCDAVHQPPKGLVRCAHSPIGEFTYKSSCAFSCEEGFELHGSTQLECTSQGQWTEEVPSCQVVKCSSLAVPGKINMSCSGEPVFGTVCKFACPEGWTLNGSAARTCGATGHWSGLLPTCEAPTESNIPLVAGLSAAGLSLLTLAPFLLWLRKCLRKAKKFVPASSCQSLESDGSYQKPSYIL
PROTOCOL SUMMARY: Inhibitory activity against human chimeric E-selectin-Ig
MEASURED METRIC: IC50

## Task Record lookup: for E-selectin (Homo sapiens, UniProt P16581), what IC50 belongs to C[C@@H]1O[C@@H](O[C@@H]2CCO[C@H](CO)[C@H]2O[C@@H]2O[C@H](CO)[C@H](O)[C@H](OS(=O)(=O)O)[C@H]2O)[C@@H](O)[C@H](O)[C@@H]1O ?
## Result > 1000 µM

## Task Record lookup: for E-selectin (Homo sapiens, UniProt P16581), what IC50 belongs to C[C@@H]1O[C@@H](O[C@H]2[C@H](O[C@@H]3O[C@H](CO)[C@H](O)[C@H](OS(=O)(=O)O)[C@H]3O)[C@@H](CO)OC[C@@H]2O)[C@@H](O)[C@H](O)[C@@H]1O ?
## Result > 1000 µM

## Task Record lookup: for E-selectin (Homo sapiens, UniProt P16581), what IC50 belongs to CC(=O)N[C@H]1[C@H]([C@H](O)[C@H](O)CO)O[C@@](O[C@H]2[C@@H](O)[C@@H](CO)O[C@@H](O[C@@H]([C@H](O[C@@H]3O[C@@H](C)[C@@H](O)[C@@H](O)[C@@H]3O)[C@H](C=O)NC(C)=O)[C@H](O)CO)[C@@H]2O)(C(=O)O)C[C@@H]1O ?
## Result 600 µM

## Task Record lookup: for E-selectin (Homo sapiens, UniProt P16581), what IC50 belongs to CC(=O)N[C@H]1[C@H]([C@H](O)[C@H](O)CO)O[C@@](O[C@@H]2[C@H](O)[C@@H](O)[C@H](O[C@H]3[C@H](O[C@@H]4O[C@@H](C)[C@@H](O)[C@@H](O)[C@@H]4O)[C@@H](O)CO[C@@H]3CO)O[C@@H]2O)(C(=O)O)C[C@@H]1O ?
## Result 240 µM

## Task Record lookup: for E-selectin (Homo sapiens, UniProt P16581), what IC50 belongs to C[C@@H]1O[C@@H](O[C@@H]2CCO[C@H](CO)[C@H]2O[C@@H]2O[C@H](CO)[C@H](O)[C@H](OP(=O)(O)O)[C@H]2O)[C@@H](O)[C@H](O)[C@@H]1O ?
## Result > 1000 µM

## Task Record lookup: for E-selectin (Homo sapiens, UniProt P16581), what IC50 belongs to CC(=O)N[C@H]1CO[C@H](CO)[C@@H](O[C@@H]2O[C@H](CO)[C@H](O)[C@H](OS(=O)(=O)O)[C@H]2O)[C@@H]1O[C@@H]1O[C@@H](C)[C@@H](O)[C@@H](O)[C@@H]1O ?
## Result > 1000 µM
